Entries annotated with measured protein stability index
B1: SPSB4 (parent)
chain: LDMDEGTLSFIVDGQYLGVAFRGL

Variants of: B1
Protocol summary: protein stability index of a GFP-peptide fusion (GPS, HEK-293T) (PSI 1-6); higher = more stable;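 further: lentivirally expressed fusions sorted by FACS into six bins by GFP to DsRed ratio, PSI derived from sequencing read proportions per bin multiplied by bin number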
Experimental setup: c terminus: a fixed tail appended

{"columns": ["Mutation name", "protein stability index"],
 "data": [
  ["L1I", 2.59],
  ["D13Q", 2.77],
  ["L24T", 2.67],
  ["G14N", 1.83],
  ["V19N", 1.98],
  ["L1W", 2.76],
  ["V12W", 3.35],
  ["D13W", 2.55],
  ["L17T", 1.69],
  ["T7A", 2.34],
  ["L17E", 1.79],
  ["R22W", 1.31],
  ["V12K", 1.79],
  ["L24S", 1.88],
  ["F10L", 1.76],
  ["L1T", 1.86],
  ["L8G", 1.76],
  ["D4M", 3.51],
  ["L1Q", 1.53],
  ["T7R", 1.75],
  ["L17W", 2.72],
  ["V19R", 2.04]
]}
